- Assay name: Measurement of the compounds' metabolic rate (human liver S9)
- Assay type: in vitro ADME
- Run conditions: human liver S9 0.5 mg protein/mL, NADPH generating system, 1 μmol/L test compound, 37° C. for 5 minutes, LC/MS/MS
Measured endpoint: Metabolic rate (remaining rate of unchanged substance: %)

COc1cccc(CC(=O)Nc2onc(-c3ccc(F)c(C)c3)c2-c2ccncn2)c1 33.1
O=C(Cc1ccccc1Cl)Nc1onc(-c2ccc(Cl)cc2)c1-c1ccncn1 53.1

A. Cc1cccc(-c2noc(NC(=O)Cc3ccccc3Br)c2-c2ccncn2)c1
B. O=C(Cc1ccccc1Cl)Nc1onc(-c2ccc(F)cc2)c1-c1ccncn1
-- ask Name the one with the greater Metabolic rate (remaining rate of unchanged substance: %) value, either A or B as given. Please identify the chosen entry by its label.
-- reply A

Values compiled from patent US7939536B2.
